# assay-explanation: In vitro hydrolysis in human plasma
# Assay type: ADME, cell-free
Recorded half-life for the following compounds
measurement-name: half-life (h)

compound="Cc1cn(C2C=CC(COC(=O)CNNC(=O)c3ccncc3)O2)c(=O)[nH]c1=O (stereo unspecified)" measurement_name=half-life unit_spec=h qualifier_symbol== reported_measurement=1
compound="Cc1cn(C2C=CC(COC(=O)CNC(=O)c3ccncn3)O2)c(=O)[nH]c1=O (stereo unspecified)" measurement_name=half-life unit_spec=h qualifier_symbol== reported_measurement=1
compound="Cc1cn(C2C=CC(COC(=O)CN(C)C)O2)c(=O)[nH]c1=O (stereo unspecified)" measurement_name=half-life unit_spec=h qualifier_symbol== reported_measurement=0.5
compound="Cc1cn(C2C=CC(COC(=O)CN3CCNCC3)O2)c(=O)[nH]c1=O (stereo unspecified)" measurement_name=half-life unit_spec=h qualifier_symbol== reported_measurement=0.333
compound="Cc1cn(C2C=CC(COC(=O)CN3CCN(c4cc5c(cc4F)c(=O)c(C(=O)O)cn5C4CC4)CC3)O2)c(=O)[nH]c1=O (stereo unspecified)" measurement_name=half-life unit_spec=h qualifier_symbol== reported_measurement=4
compound="CCn1cc(C(=O)O)c(=O)c2cc(F)c(N3CCN(CC(=O)OCC4C=CC(n5cc(C)c(=O)[nH]c5=O)O4)CC3)cc21 (stereo unspecified)" measurement_name=half-life unit_spec=h qualifier_symbol=> reported_measurement=4
